System: HeLa Kyoto;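 note: synchronized HeLa Kyoto cells, proteins quantified by TMT10plex mass spectrometry, three biological replicates, mitosis taken 0.5 h after nocodazole release, G1/S directly after double thymidine block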
Assay: thermal stability score vs G1/S (z-score of summed log2 fold changes over temperatures); higher = more thermally stable than in G1/S
Details: cell cycle stage: mitosis
Field: thermal stability score. Provide a value for each of the substances that follow.

Kindly note the recorded thermal stability score for MLLKEYRICMPLTVDEYKIGQLYMISKHSHEQSDRGEGVEVVQNEPFEDPHHGNGQFTEKRVYLNSKLPSWARAVVPKIFYVTEKAWNYYPYTITEYTCSFLPKFSIHIETKYEDNKGSNDTIFDNEAKDVEREVCFIDIACDEIPERYYKESEDPKHFKSEKTGRGQLREGWRDSHQPIMCSYKLVTVKFEVWGLQTRVEQFVHKVVRDILLIGHRQAFAWVDEWYDMTMDEVREFERATQEATNKKIGIFPPAISISSIPLLPSSVRSAPSSAPSTPLSTDAPEFLSVPKDRPRKKSAPETLTLPDPEKKATLNLPGMHSSDKPCRPKSE [PITPNC1] , which is -1.13

Kindly note the recorded thermal stability score for "RALGAPB" , which is -1.73

Kindly note the recorded thermal stability score for MDLSGVKKKSLLGVKENNKKSSTRAPSPTKRKDRSDEKSKDRSKDKGATKESSEKDRGRDKTRKRRSASSGSSSTRSRSSSTSSSGSSTSTGSSSGSSSSSASSRSGSSSTSRSSSSSSSSGSPSPSRRRHDNRRRSRSKSKPPKRDEKERKRRSPSPKPTKVHIGRLTRNVTKDHIMEIFSTYGKIKMIDMPVERMHPHLSKGYAYVEFENPDEAEKALKHMDGGQIDGQEITATAVLAPWPRPPPRRFSPPRRMLPPPPMWRRSPPRMRRRSRSPRRRSPVRRRSRSPGRRRHRSRSSSNSSR [RNPS1] , which is 1.88

Kindly note the recorded thermal stability score for MAVPAAAMGPSALGQSGPGSMAPWCSVSSGPSRYVLGMQELFRGHSKTREFLAHSAKVHSVAWSCDGRRLASGSFDKTASVFLLEKDRLVKENNYRGHGDSVDQLCWHPSNPDLFVTASGDKTIRIWDVRTTKCIATVNTKGENINICWSPDGQTIAVGNKDDVVTFIDAKTHRSKAEEQFKFEVNEISWNNDNNMFFLTNGNGCINILSYPELKPVQSINAHPSNCICIKFDPMGKYFATGSADALVSLWDVDELVCVRCFSRLDWPVRTLSFSHDGKMLASASEDHFIDIAEVETGDKLWEVQCESPTFTVAWHPKRPLLAFACDDKDGKYDSSREAGTVKLFGLPNDS [THOC3] , which is 1.13

Kindly note the recorded thermal stability score for MAAAVSSVVRRVEELGDLAQAHIQQLSEAAGEDDHFLIRASAALEKLKLLCGEEKECSNPSNLLELYTQAILDMTYFEENKLVDEDFPEDSSSQKVKELISFLSEPEILVKENNMHPKHCNLLGDELLECLSWRRGALLYMYCHSLTKRREWLLRKSSLLKKYLLDGISYLLQMLNYRCPIQLNEGVSFQDLDTAKLLSAGIFSDIHLLAMMYSGEMCYWGSKYCADQQPENHEVDTSVSGAGCTTYKEPLDFREVGEKILKKYVSVCEGPLKEQEWNTTNAKQILNFFHHRCN [C5ORF51] , which is 1.04

Kindly note the recorded thermal stability score for MSRPLITRSPASPLNNQGIPTPAQLTKSNAPVHIDVGGHMYTSSLATLTKYPESRIGRLFDGTEPIVLDSLKQHYFIDRDGQMFRYILNFLRTSKLLIPDDFKDYTLLYEEAKYFQLQPMLLEMERWKQDRETGRFSRPCECLVVRVAPDLGERITLSGDKSLIEEVFPEIGDVMCNSVNAGWNHDSTHVIRFPLNGYCHLNSVQVLERLQQRGFEIVGSCGGGVDSSQFSEYVLRRELRRTPRVPSVIRIKQEPLD [KCTD1] , which is 0.162
